# credit: patent US20250090510A1

- tested-on: eIF4G1 (Homo sapiens, UniProt Q04637)
- Sequence (Q04637 675-1129): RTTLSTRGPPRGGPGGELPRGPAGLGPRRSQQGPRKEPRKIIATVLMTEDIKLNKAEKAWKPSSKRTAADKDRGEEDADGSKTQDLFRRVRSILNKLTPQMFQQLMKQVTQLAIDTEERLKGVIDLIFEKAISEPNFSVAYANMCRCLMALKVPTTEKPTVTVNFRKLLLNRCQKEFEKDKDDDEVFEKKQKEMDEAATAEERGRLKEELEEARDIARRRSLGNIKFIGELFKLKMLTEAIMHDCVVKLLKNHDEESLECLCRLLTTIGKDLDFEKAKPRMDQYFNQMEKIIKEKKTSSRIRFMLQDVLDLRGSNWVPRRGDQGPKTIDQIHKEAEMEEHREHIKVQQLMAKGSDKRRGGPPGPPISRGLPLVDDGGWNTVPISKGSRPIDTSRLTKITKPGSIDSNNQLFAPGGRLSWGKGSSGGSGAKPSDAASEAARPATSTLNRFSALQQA

item-smiles	IC50
Cn1ccnc1S/C(=C/C=C(C#N)C#N)c1ccc(Cl)cc1	58.4 µM

---

- Test system: HEK293T cells with eIF4G1 knockdown
- method-summary: Puromycin labeling after control or eIF4G1 siRNA
- Assay type: cell-based, human
- condition-details: Homo sapiens, HEK-293T, eIF4G1 siRNA knockdown, 48 h; 3 h treatment; read-out: IC-50, puromycin labeling
pIC50: −log10 of the molar value.

item-smiles	pIC50
Cn1ccnc1S/C(=C/C=C(C#N)C#N)c1ccc(Cl)cc1	4.10

---

- tested-on: rabbit reticulocyte lysate
- method-summary: In-vitro translation of capped firefly luciferase mRNA
- condition-details: 10 minutes pre-incubation, 90 minutes at 30° C.

item-smiles	unit-abbreviation	IC50
O=C(/C=C/Sc1ccc(C(F)(F)F)cn1)c1ccccc1	µM	5.44
Cn1ccnc1S/C(=C/C=C(C#N)C#N)c1ccc(Cl)cc1	µM	4.14
